# System: M19-MEL
# assay: NCI tumour cell line growth inhibition, 48 h
Calls of active or inactive are those of the source. Rule as the data show it: active = GI50 up to about 1.1 µM and inactive = higher.
reported_endpoint: GI50

compound="CC1(c2ccccc2Cl)C(C#N)C(=O)NC(=O)C1C#N (stereo not given)" reported_endpoint=GI50 reading="35.3 µM (inactive)"
compound=Cc1ccc(S(=O)(=O)N(/N=C(\N)Oc2ccc(Cl)cc2)C(=N)Oc2ccc(Cl)cc2)cc1 reported_endpoint=GI50 reading="> 100 µM (inactive)"
compound=O=C(COC(=O)c1cccc2c(=O)c3ccccc3[nH]c12)Nc1ccc(S(=O)(=O)Nc2ncccn2)cc1 reported_endpoint=GI50 reading="48.2 µM (inactive)"
compound=Cc1ccc2c(c1)C(=O)N(N(C)C)CC(=O)N2 reported_endpoint=GI50 reading="> 100 µM (inactive)"

Input line: Value lookup for GI50; key = `O=C(O)c1ccccc1NC(=O)C1CCCCC1`
Output line: > 100 µM (inactive)

* * *

# System: OVCAR-3
# assay: NCI tumour cell line growth inhibition, 48 h
Active and inactive are the calls of the source. No stated cut-off is given here; in the data, active = GI50 up to about 1.1 µM and inactive = higher.
Your reply should match one of these outcome classes. 1.0 for active, 0.0 for inactive

compound=COc1cc2c(cc1OC)CCN=C2 category_label=0.0
compound="Cc1cc(C)cc(NC(=O)CCC(=O)C2CCC/C2=N\\NC(=O)C(=O)NN)c1 (configuration not stated)" category_label=0.0
compound="CC/C=N\\N1C(N)=C(C#N)C(C#N)(C#N)C1CC (configuration not stated)" category_label=0.0
compound=S=C1N=C(Cl)/C(=C\c2ccccc2)N1 category_label=0.0
compound=O=C(c1cccs1)N(C(=S)OCCOc1ccccc1)c1ccccc1 category_label=0.0
compound=O=c1c2c(c1=O)C1(SCCCS1)c1cc(Cl)ccc1O2 category_label=0.0
compound=C[n+]1c(-c2ccc(/C=N\NC(=O)c3ccc(C(=O)N/N=C/c4ccc(-c5cn6ccsc6[n+]5C)cc4)cc3)cc2)cn2ccsc21 category_label=0.0
compound="O=S(=O)(O)C(O)/C=C/c1ccccc1 (configuration not stated)" category_label=0.0

Input line: Name the outcome recorded for `Cc1noc(C)c1-n1nc2ccc3nonc3c2n1` in the assay.
Output line: 0.0

Input line: Follow-up item: Cc1ccc(S(=O)(=O)n2c3c(c4ccccc42)CCN2C(=O)C(S(=O)(=O)c4ccccc4)=CCC32)cc1 (configuration not stated)
Output line: 1.0

Input line: Could you do the same for CN1C(=O)C(CC(=O)O)NC1=S (configuration not stated) , please?
Output line: 0.0

Input line: # repeat for COc1cc2c(cc1OC)CN1CCc3ccccc3CC1C2 (configuration not stated)
Output line: 0.0

* * *

# Test system: DMS-114
# assay: NCI tumour cell line growth inhibition, 48 h
Activity calls are given as the source filed them. No stated cut-off is given here; in the data, active = GI50 up to about 1.1 µM and inactive = higher.
Outcome field: choose from active, inactive

Solved cases (5 shown):
compound="Nc1ccc2c(c1)CN1C(=O)c3ccccc3C1=N2 [DANIQUIDONE]" category_label=inactive
compound="COc1c(C)c2c(c(O)c1C/C=C(\\C)CCC(=O)O)C(=O)OC2 [MYCOPHENOLIC ACID]" category_label=active
compound=COc1ccc2cc(C(=O)c3ccccc3C(=O)O)ccc2c1 category_label=inactive
compound=COc1cc(/C=N/N=C(\N)NO)c(Cl)cc1O category_label=inactive
compound=CSc1snc2sc3c(Cl)nnnc3c12 category_label=inactive

Input line: Record lookup: outcome of this test for COc1cc(C2C(Cl)C(=O)N2n2cnc3ccccc3c2=O)ccc1O (centres undefined) ?
Output line: inactive

Input line: Further, for CCCCCCCCCCCC(=O)OCC1OC(n2cc(F)c(=O)[nH]c2=O)C(NC(=O)OCc2ccccc2)C(OC(=O)CCCCCCCCCCC)C1O (centres undefined) ?
Output line: inactive

Ref: ChEMBL document CHEMBL1201862
